System: S. aureus MRSA (ATCC 33591)
Test: MIC susceptibility testing
Assay type: cell-based, Staphylococcus aureus
Settings: Staphylococcus aureus, MRSA ATCC33591; read-out: (G) MRSA (ATCC33591) MIC
Excerpt: Media and culture conditions. Mueller Hinton broth (MHB), cation adjusted Mueller Hinton broth (CA-MHB), and Brain Heart Infusion broth (BHI) were purchased from Becton Dickinson (Franklin Lakes, N.J.). Tryptic soy agar (TSA) plates, TSA with 5% sheep blood plates, and CA-MHB with 3% laked horse blood were purchased from Remel (San Diego, Calif.). MHB was used to assay all Staphylococcus aureus strains. […]
property: log10(MIC) (log10 of the value in µg/mL)
Annotation: log10 of MIC, µg/mL basis.

// worked examples, log10(MIC) included
molecule | system-under-test | log10(MIC)
COc1ccc(-c2cnc(N3CCN(C(C)=O)CC3)c3nc(Cc4nc5nc(Cl)ccc5[nH]4)cn23)c(Cl)c1 [Compound 2185] | S. aureus MRSA (ATCC 33591) | 0.08
COc1ccc(-c2cnn3c2CN(Cc2nc4nc(Cl)ccc4[nH]2)CC3)c(Cl)c1 [Compound 2172] | S. aureus MRSA (ATCC 33591) | 0.12
COc1cc(Cl)c(Cc2cn(Cc3nc4ccc(Cl)nc4[nH]3)c([S+](C)[O-])n2)cc1OC (stereo not drawn) [Compound 2241] | S. aureus MRSA (ATCC 33591) | -0.98
COc1ccc(-c2ccc(NC(C)=O)c3nc(Cc4nc5cc(Cl)ccc5[nH]4)cn23)c(Cl)c1 [Compound 2180] | S. aureus MRSA (ATCC 33591) | -0.29

Q: Request the reported log10(MIC) associated with COc1ccc(-c2cccc3nc(Cc4nc5nc(F)ccc5[nH]4)cn23)c(Cl)c1 [Compound 2122]
Result: -0.04

Q: Try this molecule too: CCn1c(Cc2ccc(Cl)cc2Cl)cn(Cc2cc3nc(F)ccc3[nH]2)c1=O [Compound 2112]
Result: -0.39

Q: Try this molecule too: COc1ccc(-c2nccc3nn(Cc4nc5nc(Cl)ccc5[nH]4)cc23)c(Cl)c1 [Compound 2247]
Result: 0.16

Q: Try this molecule too: CCn1c(Cc2ccc(OC)cc2Cl)cn(Cc2nc3nc(F)ccc3[nH]2)c1=O [Compound 2114]
Result: 0.18

Q: Try this molecule too: COc1ccc(-c2cccc3c2CN(Cc2nc4nc(Cl)ccc4[nH]2)C3=O)c(Cl)c1 [Compound 2230]
Result: -0.78

Q: Try this molecule too: COc1cc(-c2cccc3nc(Cc4nc5nc(Br)ccc5[nH]4)cn23)c(Cl)cc1Cl [Compound 2146]
Result: -0.90

Q: Try this molecule too: COc1ccc(Cc2cn(Cc3nc4c(Cl)c(Cl)ccc4[nH]3)c(=O)n2CC(C)(C)O)c(Cl)c1 [Compound 2242]
Result: 0.26

Q: Try this molecule too: COc1ccc(-c2cccc3nn(Cc4nc5nc(Cl)ccc5[nH]4)cc23)c(Cl)c1 [Compound 2245]
Result: -1.42

Q: Try this molecule too: CCn1c(Cc2ccc(OC)cc2Cl)cn(Cc2nc3nc(Cl)ccc3[nH]2)c1=O [Compound 2093]
Result: -0.91

Q: Try this molecule too: COc1ccc(-c2cccc3c2CN(Cc2nc4nc(Cl)ccc4[nH]2)C3)c(Cl)c1 [Compound 2224]
Result: 0.07

Each recorded value in this set is attributed to patent US11584744B2.
